- CONDITION DETAILS: pH 6.8
MEASURED PARAMETER: aqueous solubility (µg/mL)

// known answers, use as guide
aqueous solubility for Cc1cc(C)nc(NCc2cnc(C)c(C)c2)n1 ?
13.3

aqueous solubility for O=C(NCc1nnc2c(O)nccn12)C1CCCC1 ?
41.8

aqueous solubility for N#Cc1ccc(CCC(=O)Nc2ccncc2)cc1 ?
37.9

aqueous solubility for COc1ccccc1CC(=O)NC1CCN(C)CC1 ?
43.2

aqueous solubility for CC(c1nnc(-c2cccs2)o1)N1CCC(n2c(=O)[nH]c3ccccc32)CC1 (centres undefined) ?
56.9

A = Oc1ccc(-c2noc(C3CC3)n2)cc1
B = Cc1ccc(C)c(OCC(=O)N2CCC(C(=O)Nc3ccccc3)CC2)c1
C = CC(=O)NC1CCN(Cc2cccc(-c3cccnc3)c2)CC1
D = Cc1cc(NC(=O)c2ccc(Cl)cc2F)no1
List from greatest to least aqueous solubility. Response field: labels, in requested order.
A, C, D, B
(A: 49 µg/mL, C: 25.8 µg/mL, D: 7 µg/mL, B: 3.37 µg/mL)

###

- CONDITION DETAILS: pH 6.8
MEASURED PARAMETER: aqueous solubility (µg/mL)

// known answers, use as guide
aqueous solubility for CCc1noc(COc2c(C)ccnc2Cl)n1 ?
23.3

aqueous solubility for CC(C)[C@@H](C(=O)Nc1nc2ccccc2[nH]1)N1Cc2ccccc2C1=O ?
11

I = CCc1noc(C2CCC(NCC3CCC(F)(F)CC3)CC2)n1 (configuration not stated)
II = O=C(NCc1cccc(O)c1)Nc1ccccc1F
Would you kindly point out which of I and II has the smaller aqueous solubility figure? Refer to your chosen entry by its label in the reply.
II

A = Cc1cc(F)c(C(=O)Nc2cccc(-c3nncn3C(C)C)n2)cc1-n1cnc(C2CC2)c1
B = Cc1nc2ccccc2n1Cc1ccc(C(=O)O)cc1
Given the listed records, identify the one among A and B with higher aqueous solubility. Refer to your chosen entry by its label in the reply.
A

A = Cc1sc2nc(CN3CCOCC3)nc(N3CCN(c4ccncc4)CC3)c2c1C
B = CC(C)CN1CC[C@H](c2nc3ccc(C#N)cc3[nH]2)C1
C = COc1cc(/C=C/c2nccc(C#N)n2)ccc1F
D = CNC(=O)c1ccc(Nc2ncc(C(F)(F)F)c(NCc3nccnc3N(C)S(C)(=O)=O)n2)cc1
E = COc1ccc(OCC(=O)Nc2cccc(Cl)c2N2CCN(C(C)=O)CC2)cc1
Give the ascending ranking of the items by reported aqueous solubility. Response field: labels, in requested order.
D, C, E, B, A
(D: 1.9 µg/mL, C: 3.27 µg/mL, E: 4.7 µg/mL, B: 36.7 µg/mL, A: 76.6 µg/mL)

P = COc1cc2c(cc1OC)CC(=O)N(CCCN(C)C[C@H]1Cc3cc(OC)c(OC)cc31)CC2
Q = Cc1c(Nc2ccc3nccnc3n2)cnn1C
Would you kindly point out which of P and Q has the smaller aqueous solubility figure? Refer to your chosen entry by its label in the reply.
Q

###

- CONDITION DETAILS: pH 6.8
MEASURED PARAMETER: aqueous solubility (µg/mL)

// known answers, use as guide
aqueous solubility for COc1cc(-c2ccc(C)s2)cc2c1OCCN(c1noc(C)n1)C2 ?
3.01

aqueous solubility for O=C(NC1(c2ccccc2)CCC1)c1cc(C2CC2)on1 ?
8.8

aqueous solubility for Nc1nc2ccccc2n1CCCc1ccccc1 ?
27.2

aqueous solubility for CN(C)c1nc(-c2cccc(-c3ccccc3)c2)n[nH]1 ?
0.81

aqueous solubility for Nc1ncnc2c1c(-c1ccc(Oc3ccccc3)cc1)nn2[C@@H]1CCCNC1 ?
40

a = CC(C)CC(=O)Nc1cccnc1N(C)C
b = Cc1ccc(C(=O)Nc2nc3ccccc3[nH]2)cc1
Would you kindly point out which of a and b has the smaller aqueous solubility figure? Refer to your chosen entry by its label in the reply.
b
(b: 0.85 µg/mL, a: 30.3 µg/mL)
